Recorded IC50 by entry
molecular target: Beta-lactamase (Acinetobacter baumannii, UniProt Q8RLA6); experiment: Inhibition of beta-lactamase Oxa40 in Acinetobacter baumannii assessed as inhibition of hydrolysis of nitrocefin
Sequence (Q8RLA6 whole entry): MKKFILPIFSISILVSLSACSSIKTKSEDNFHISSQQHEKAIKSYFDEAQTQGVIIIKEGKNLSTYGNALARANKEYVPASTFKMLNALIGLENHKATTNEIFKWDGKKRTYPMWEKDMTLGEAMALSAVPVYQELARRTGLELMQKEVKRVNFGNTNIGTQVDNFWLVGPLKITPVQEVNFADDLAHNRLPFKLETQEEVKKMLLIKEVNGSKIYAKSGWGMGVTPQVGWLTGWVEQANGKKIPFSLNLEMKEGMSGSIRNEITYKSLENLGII

IN: For the compound shown here, O=C(N[C@@H]1CCCNCC1)[C@@H]1CC[C@@H]2CN1C(=O)N2OS(=O)(=O)O , give the reported IC50.
OUT: > 50 µM

IN: Any idea what its IC50 is? The compound is O=C(N[C@@H]1CCNC1)[C@@H]1CC[C@@H]2CN1C(=O)N2OS(=O)(=O)O
OUT: > 50 µM

IN: Which IC50 reading was recorded for the compound O=C(NC1CCS(=O)(=O)CC1)[C@@H]1CC[C@@H]2CN1C(=O)N2OS(=O)(=O)O ?
OUT: > 50 µM

IN: For the compound CN1CCC(NC(=O)[C@@H]2CC[C@@H]3CN2C(=O)N3OS(=O)(=O)O)CC1 , what IC50 is on record?
OUT: > 50 µM

IN: IC50 for C[n+]1ccc(NC(=O)[C@@H]2CC[C@@H]3CN2C(=O)N3OS(=O)(=O)[O-])cc1 ?
OUT: > 50 µM

The measured values listed here are drawn from ChEMBL document CHEMBL3112543.
